Exercise: for every item that follows, state its recorded CC50.
# Test system: LNCaP cells
# assay summary: Cytotoxicity assessment (Cell-titer-glo cell viability), LNCaP
# condition set: read-out: LNCAP (CC50); LNCaP cells, 6 days of treatment, Cell-titer-glo, vs DMSO

Provide measured CC50 on LNCaP cells for CC1(C)C(NC(=O)c2ccc(CCN3CCN(CC4CCN(C(=O)CNc5ccc6nnn(C7CCC(=O)NC7=O)c(=O)c6c5)CC4)CC3)cc2)C(C)(C)C1Oc1ccc(C#N)c(Cl)c1 (centres unmarked) please. 456 nM

Under LNCaP cells, report CC50 for CC1(C)C(NC(=O)c2ccc(OCCOCCOCCOCCOCCOCCCCNC(=O)C3CCN(c4ccc5nnn(C6CCC(=O)NC6=O)c(=O)c5c4)CC3)cc2)C(C)(C)C1Oc1ccc(C#N)c(Cl)c1 (centres unmarked) 1310 nM

Give CC50 only, for CC1(C)[C@H](NC(=O)c2ccc(N3CCN(CCC4CCN(C(=O)C5CCN(c6ccc7nnn(C8CCC(=O)NC8=O)c(=O)c7c6)CC5)CC4)CC3)cc2)C(C)(C)[C@H]1Oc1ccc(C#N)c(Cl)c1 (some centres unmarked) , using LNCaP cells data. 361 nM

Write down measured CC50 (LNCaP cells) for this molecule. CC1(C)C(NC(=O)c2ccc(C#CCC3CCN(CC4CCN(C(=O)C5CN(c6ccc7nnn(C8CCC(=O)NC8=O)c(=O)c7c6)C5)CC4)CC3)cc2)C(C)(C)C1Oc1ccc(C#N)c(Cl)c1 (centres unmarked) 166 nM

Please indicate recorded CC50 of CC1(C)C(NC(=O)c2ccc(-n3cc(CC4CCN(c5ccc6nnn(C7CCC(=O)NC7=O)c(=O)c6c5)CC4)nn3)cc2)C(C)(C)C1Oc1ccc(C#N)c(Cl)c1 (centres unmarked) measured with LNCaP cells. 144 nM

----------
# Tested on: LNCaP cells
Hi! Could you tag entries with CC50 below 0.1 µM as 1, and those at or above as -1? Much appreciated.

Find out if reported CC50 for CC1(C)[C@H](NC(=O)c2ccc(N3CCN(CCC4CCN(C(=O)CNc5ccc6nnn(C7CCC(=O)NC7=O)c(=O)c6c5)CC4)CC3)cc2)C(C)(C)[C@H]1Oc1ccc(C#N)c(Cl)c1 (stereo partly shown) is less than 0.1 µM -1

For this compound, is CC50 lower than 0.1 µM? CC1(C)[C@H](NC(=O)c2ccc(N3CCN(CC4CCN(C(=O)C5CN(c6ccc7nnn(C8CCC(=O)NC8=O)c(=O)c7c6)C5)CC4)CC3)cc2)C(C)(C)[C@H]1Oc1ccc(C#N)c(Cl)c1 (stereo partly shown) 1

Hi there! Is CC50 for CC1(C)[C@H](NC(=O)c2ccc(N3CCN(CC4CCN(C(=O)CNc5ccc6nnn(C7CCC(=O)NC7=O)c(=O)c6c5)CC4)CC3)cc2)C(C)(C)[C@H]1Oc1ccc(C#N)c(Cl)c1 (stereo partly shown) below 0.1 µM, do you know? -1

Determine whether this compound shows CC50 lower than 0.1 µM (ties excluded): CC1(C)[C@H](NC(=O)c2ccc(C#CC3CCN(C(=O)COc4ccc5nnn(C6CCC(=O)NC6=O)c(=O)c5c4)CC3)cc2)C(C)(C)[C@H]1Oc1ccc(C#N)c(Cl)c1 (stereo partly shown) -1

Identify whether the compound CC1(C)[C@H](NC(=O)c2ccc(N3CCN(CCC4CCN(C(=O)C5CN(c6ccc7nnn(C8CCC(=O)NC8=O)c(=O)c7c6)C5)CC4)CC3)cc2)C(C)(C)[C@H]1Oc1ccc(C#N)c(Cl)c1 (stereo partly shown) records CC50 below 0.1 µM. -1

Criterion: CC50 strictly below 0.1 µM. Is it met by CC1(C)[C@H](NC(=O)c2ccc(C#CC3CCN(C(=O)CNc4ccc5nnn(C6CCC(=O)NC6=O)c(=O)c5c4)CC3)cc2)C(C)(C)[C@H]1Oc1ccc(C#N)c(Cl)c1 (stereo partly shown) ? 1

Take the compound CC1(C)[C@H](NC(=O)c2ccc(N3CCN(CC4CCN(c5ccc6c(=O)n(C7CCC(=O)NC7=O)nnc6c5)CC4)CC3)cc2)C(C)(C)[C@H]1Oc1ccc(C#N)c(Cl)c1 (stereo partly shown) and say whether its CC50 is less than 0.1 µM. -1

Please indicate whether the reported CC50 of CC1(C)[C@H](NC(=O)c2ccc(N3CCN(CCC4CCN(C(=O)COc5ccc6nnn(C7CCC(=O)NC7=O)c(=O)c6c5)CC4)CC3)cc2)C(C)(C)[C@H]1Oc1ccc(C#N)c(Cl)c1 (stereo partly shown) is strictly below 0.1 µM. -1

Is it true that CC50 reported for CC1(C)C(NC(=O)c2ccc(OCCOCCOCCOCCOCCOCCCCNC(=O)CNc3cccc4nnn(C5CCC(=O)NC5=O)c(=O)c34)cc2)C(C)(C)C1Oc1ccc(C#N)c(Cl)c1 (stereo not shown) is less than 0.1 µM? -1

Dear colleague, could you confirm whether CC50 of CC1(C)[C@H](NC(=O)c2ccc(-c3cnn(C4CCN(CC5CCN(C(=O)C6CN(c7ccc8nnn(C9CCC(=O)NC9=O)c(=O)c8c7)C6)CC5)CC4)c3)cc2)C(C)(C)[C@H]1Oc1ccc(C#N)c(Cl)c1 (stereo partly shown) falls below 0.1 µM? Thanks. 1

----------
Consider the following compounds; for each one, report its Degradation (1 μM treated in LNCaP, % AR remaining).
# tested target: Androgen receptor (AR) (Homo sapiens, UniProt P10275, T878A)
# Construct: 5.5×10^5 LNCap cells were injected into each well of a 6-well plate; endogenous in cells; host or cells: LNCaP
# Sequence (P10275 whole entry T878A): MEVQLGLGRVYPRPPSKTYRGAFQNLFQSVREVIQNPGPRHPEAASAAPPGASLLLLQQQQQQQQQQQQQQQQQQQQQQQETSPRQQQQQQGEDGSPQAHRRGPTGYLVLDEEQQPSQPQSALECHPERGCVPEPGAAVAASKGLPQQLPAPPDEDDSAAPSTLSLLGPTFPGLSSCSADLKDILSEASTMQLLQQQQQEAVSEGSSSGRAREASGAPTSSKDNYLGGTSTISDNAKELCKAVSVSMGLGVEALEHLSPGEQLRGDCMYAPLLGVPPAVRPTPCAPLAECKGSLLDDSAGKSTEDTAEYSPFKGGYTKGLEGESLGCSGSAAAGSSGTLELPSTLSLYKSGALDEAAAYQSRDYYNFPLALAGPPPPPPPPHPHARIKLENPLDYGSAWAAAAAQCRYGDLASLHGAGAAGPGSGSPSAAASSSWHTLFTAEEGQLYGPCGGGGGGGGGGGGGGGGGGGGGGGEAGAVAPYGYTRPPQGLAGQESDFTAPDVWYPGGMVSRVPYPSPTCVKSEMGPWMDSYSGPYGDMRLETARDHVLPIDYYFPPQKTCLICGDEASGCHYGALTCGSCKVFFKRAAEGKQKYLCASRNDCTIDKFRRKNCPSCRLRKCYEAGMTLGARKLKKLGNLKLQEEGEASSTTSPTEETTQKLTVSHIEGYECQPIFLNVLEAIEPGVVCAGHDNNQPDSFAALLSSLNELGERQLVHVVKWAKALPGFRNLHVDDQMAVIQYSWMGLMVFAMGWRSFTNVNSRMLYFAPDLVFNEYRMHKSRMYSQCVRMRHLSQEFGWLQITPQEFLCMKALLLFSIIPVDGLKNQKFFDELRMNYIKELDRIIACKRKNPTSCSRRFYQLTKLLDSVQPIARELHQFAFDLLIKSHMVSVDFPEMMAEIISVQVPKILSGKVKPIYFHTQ
# assay summary: Assessment of AR proteolytic activity (Western blotting of LNCap cell lysates)
# Assay type: cell-based
# condition set: 24 hours of treatment, Western blotting quantified with Image J
Supply the numeric figure in %, leaving out any unit text.

Give Degradation (1 μM treated in LNCaP, % AR remaining) for CC1(C)C(NC(=O)c2ccc(N3CCC(CN4CCN(C5CCN(c6ccc7c(=O)n(C8CCC(=O)NC8=O)nnc7c6)CC5)CC4)CC3)nc2)C(C)(C)C1Oc1ccc(C#N)c(Cl)c1 (centres unmarked) 12

Please report Degradation (1 μM treated in LNCaP, % AR remaining) for the following compound: CC1(C)[C@H](NC(=O)c2ccc(N3CCN(CC4(O)CCN(C(=O)COc5ccc6nnn(C7CCC(=O)NC7=O)c(=O)c6c5)CC4)CC3)cc2)C(C)(C)[C@H]1Oc1ccc(C#N)c(Cl)c1 (some centres unmarked) 7.7

// fetch Degradation (1 μM treated in LNCaP, % AR remaining) given entry CC1(C)[C@H](NC(=O)c2ccc(C#CC3CCN(CC4CCN(c5ccc6c(=O)n(C7CCC(=O)NC7=O)nnc6c5)CC4)CC3)nc2)C(C)(C)[C@H]1Oc1ccc(C#N)c(Cl)c1 (some centres unmarked) 3

// Input: CC1(C)C(NC(=O)c2ccc(N3CCN(CC4CCN(C(=O)C5CCN(c6ccc7nnn(C8CCC(=O)NC8=O)c(=O)c7c6)CC5)CC4)CC3)nc2)C(C)(C)C1Oc1ccc(C#N)c(Cl)c1 (centres unmarked) . Output its Degradation (1 μM treated in LNCaP, % AR remaining) only. 18

Please report the measured Degradation (1 μM treated in LNCaP, % AR remaining) for CC1(C)C(NC(=O)c2ccc(C#CCC3CCN(C(=O)C4CN(c5ccc6nnn(C7CCC(=O)NC7=O)c(=O)c6c5)C4)CC3)cc2)C(C)(C)C1Oc1ccc(C#N)c(Cl)c1 (centres unmarked) 9

----------
# tested target: Androgen receptor (AR) (Homo sapiens, UniProt P10275, T878A)
# Construct: 5.5×10^5 LNCap cells were injected into each well of a 6-well plate; endogenous in cells; host or cells: LNCaP
# assay summary: Assessment of AR proteolytic activity (Western blotting of LNCap cell lysates)
# Assay type: cell-based
# condition set: 24 hours of treatment, Western blotting quantified with Image J
One threshold, 20%, splits the recorded Degradation (1 μM treated in LNCaP, % AR remaining) values: lower ones are TRUE, equal or higher ones are FALSE.

For this compound, is Degradation (1 μM treated in LNCaP, % AR remaining) lower than 20%? CC1(C)[C@H](NC(=O)c2ccc(-n3cc(C4CCN(C(=O)C5CN(c6ccc7nnn(C8CCC(=O)NC8=O)c(=O)c7c6)C5)CC4)nn3)cc2)C(C)(C)[C@H]1Oc1ccc(C#N)c(Cl)c1 (some centres unmarked) [Example 101] FALSE

Lab log: compare recorded Degradation (1 μM treated in LNCaP, % AR remaining) with 20%; is it strictly lower for CC1(C)C(NC(=O)c2ccc(-c3cnn(C4CCN(CC5CCN(C(=O)C6CCN(c7ccc8nnn(C9CCC(=O)NC9=O)c(=O)c8c7)CC6)CC5)CC4)c3)cc2)C(C)(C)C1Oc1ccc(C#N)c(Cl)c1 (centres unmarked) [Example 82] ? FALSE

Dear colleague, could you confirm whether Degradation (1 μM treated in LNCaP, % AR remaining) of CC1(C)C(NC(=O)c2ccc(N3CCN(C=C4CCN(C(=O)C5CCN(c6ccc7nnn(C8CCC(=O)NC8=O)c(=O)c7c6)CC5)CC4)CC3)cc2)C(C)(C)C1Oc1ccc(C#N)c(Cl)c1 (centres unmarked) [Example 65] falls below 20%? Thanks. FALSE

I'd appreciate it if you could check whether CC1(C)C(NC(=O)c2ccc(OCCOCCOCCOCCOCCOCCCCNc3cccc4nnn(C5CCC(=O)NC5=O)c(=O)c34)cc2)C(C)(C)C1Oc1ccc(C#N)c(Cl)c1 (centres unmarked) [Example 5] has Degradation (1 μM treated in LNCaP, % AR remaining) smaller than 20%. TRUE

Does the reported Degradation (1 μM treated in LNCaP, % AR remaining) of the following compound sit strictly below 20%? CC1(C)C(NC(=O)c2ccc(C#CCN3CCC4(CC3)CN(c3ccc5c(=O)n(C6CCC(=O)NC6=O)nnc5c3)C4)nc2)C(C)(C)C1Oc1ccc(C#N)c(Cl)c1 (centres unmarked) [Example 181] TRUE

Every entry's value here was drawn from patent US20240018123A1.
